Where do the numbers come from? From patent US9782406B2.

Target: Btk (Homo sapiens, UniProt Q06187)
Sequence (Q06187 whole entry): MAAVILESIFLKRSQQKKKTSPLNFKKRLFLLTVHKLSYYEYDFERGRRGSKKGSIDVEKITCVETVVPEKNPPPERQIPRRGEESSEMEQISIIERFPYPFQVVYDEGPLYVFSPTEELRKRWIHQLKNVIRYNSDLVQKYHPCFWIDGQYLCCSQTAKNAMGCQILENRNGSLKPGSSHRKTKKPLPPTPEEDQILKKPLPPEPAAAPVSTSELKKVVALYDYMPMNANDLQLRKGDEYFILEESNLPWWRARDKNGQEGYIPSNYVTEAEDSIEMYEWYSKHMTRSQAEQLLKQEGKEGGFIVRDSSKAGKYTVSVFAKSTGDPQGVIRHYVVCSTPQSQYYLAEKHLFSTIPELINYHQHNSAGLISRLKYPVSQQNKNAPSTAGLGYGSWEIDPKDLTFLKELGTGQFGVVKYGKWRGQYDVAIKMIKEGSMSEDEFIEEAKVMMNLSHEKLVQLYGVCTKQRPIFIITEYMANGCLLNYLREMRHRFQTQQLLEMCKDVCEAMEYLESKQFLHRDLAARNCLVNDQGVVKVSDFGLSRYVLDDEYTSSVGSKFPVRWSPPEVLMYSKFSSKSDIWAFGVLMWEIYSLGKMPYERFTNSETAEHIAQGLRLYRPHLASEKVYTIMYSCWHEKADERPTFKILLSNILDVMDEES
Assay: Btk in vitro inhibitory activity, acellular TR-FRET kinase assay; also: 1 µM peptide substrate
Details: read-out: Btk IC50 (Efficacy)
Description: Btk kinase activity was determined using a time-resolved fluorescence resonance energy transfer (TR-FRET) methodology. Measurements were performed in a reaction volume of 50 μL using 96-well assay plates. […] The TR-FRET signal was measured on a multimode plate reader with an excitation wavelength (λEx) of 330 nm and detection wavelengths (λEm) of 615 and 665 nm. Activity was determined by the ratio of the fluorescence at 665 nm to that at 615 nm. […]

- compound: "C=CC(=O)Nc1cccc(Nc2ncc(NC(=O)c3cc(NC(=O)c4cccc(C(F)(F)F)c4)ccc3Cl)cn2)c1 [Example 6]"
  IC50: "< 100 nM"
- compound: "C=CC(=O)Nc1cccc(Nc2ncc(NC(=O)c3cccc(NC(=O)c4cccc(C(F)(F)F)c4)c3)cn2)c1 [Example 8]"
  IC50: "< 100 nM"
- compound: "Nc1cccc(Nc2ncc(NC(=O)c3cc(NC(=O)c4cccc(C(F)(F)F)c4)ccc3Cl)cn2)c1 [Example 33]"
  IC50: "< 100 nM"
- compound: "Cc1ccc(NC(=O)c2cccc(Cl)c2)cc1C(=O)Nc1cnc(Nc2cccc(N)c2)nc1 [Example 27]"
  IC50: "< 100 nM"
- compound: "C=CC(=O)Nc1cccc(Nc2ncc(NC(=O)c3cc(NC(=O)CC)ccc3C)cn2)c1 [Example 10]"
  IC50: "100 to 1000 nM"
- compound: "Nc1cccc(Nc2ncc(NC(=O)c3cccc(NC(=O)c4cccc(C(F)(F)F)c4)c3)cn2)c1 [Example 32]"
  IC50: "100 to 1000 nM"
- compound: "Cc1ccc(NC(=O)c2cnoc2C)cc1C(=O)Nc1cnc(Nc2cccc(N)c2)nc1 [Example 29]"
  IC50: "100 to 1000 nM"
